- protocol.description: Metabolic stability in intestinal S9 fraction, dog
- Assay type: in vitro ADME
recorded.endpoint: half-life at 2 μM (min)
Unit min implied. Number only.

CC(C)OC(=O)C(C)(C)N[P@](=O)(OC[C@H]1O[C@@](C#N)(c2ccc3c(N)ncnn23)[C@](C)(O)[C@@H]1O)Oc1ccccc1	550

Query :: Let me know recorded half-life at 2 μM for CC(C)OC(=O)[C@H](C)N[P@](=O)(OC[C@H]1O[C@@](C#N)(c2ccc3c(N)ncnn23)[C@](C)(O)[C@@H]1OC(=O)C(C)C)Oc1ccccc1 [GS-6620, reference compound] , thanks.
Result :: 33

====

- protocol.description: Metabolic stability in intestinal S9 fraction, rat
- Type: in vitro ADME
Each entry below lists one item and its recorded half-life at 2 μM value.
Give the quantity in h, number only.

CC(C)OC(=O)C(C)(C)N[P@](=O)(OC[C@H]1O[C@@](C#N)(c2ccc3c(N)ncnn23)[C@](C)(O)[C@@H]1O)Oc1ccccc1 [GS2]	2.83

# evaluate next
Query :: Specify half-life at 2 μM for CC(C)OC(=O)[C@H](C)N[P@](=O)(OC[C@H]1O[C@@](C#N)(c2ccc3c(N)ncnn23)[C@](C)(O)[C@@H]1OC(=O)C(C)C)Oc1ccccc1 [GS-6620, reference compound] and stop.
Result :: 0.147
